# key: entry, value: NOAEL at 2 week
test: Two week range-finding toxicity study in mice; assay type: in vivo, CD-1 mice; details: both sexes, CD-1, mouse, in vivo, iv, NOAEL 2 week mice clinical

molecule: CC1[C@H](C)OC(=O)C[C@H](O)C[C@H](O)CC[C@@H](O)[C@H](O)C[C@H](O)C[C@]2(O)C[C@H](O)C(C(=O)N3CCN(C)CC3)C(C[C@@H](OC3O[C@H](C)[C@@H](O)[C@H](NC[C@@]4(O)OC[C@@H](O)[C@@H](O)[C@@H]4O)[C@@H]3O)/C=C/C=C/C=C/C=C/C=C/C=C/C=C/[C@H](C)[C@H]1O)O2 (stereo partly drawn)
NOAEL at 2 week: 3 mg/kg
//
molecule: CC1[C@H](C)OC(=O)C[C@H](O)C[C@H](O)CC[C@@H](O)[C@H](O)C[C@H](O)C[C@]2(O)C[C@H](O)C(C(=O)N3CCN(C)CC3)C(C[C@@H](OC3O[C@H](C)[C@@H](O)[C@H](NC[C@@]4(O)OC[C@@H](O)[C@H](O)[C@@H]4O)[C@@H]3O)/C=C/C=C/C=C/C=C/C=C/C=C/C=C/[C@H](C)[C@H]1O)O2 (stereo partly drawn)
NOAEL at 2 week: > 5 mg/kg
//
molecule: CC1[C@H](C)OC(=O)C[C@H](O)C[C@H](O)CC[C@@H](O)[C@H](O)C[C@H](O)C[C@]2(O)C[C@H](O)C(C(=O)NCCCN3CCOCC3)C(C[C@@H](OC3O[C@H](C)[C@@H](O)[C@H](NC[C@@]4(O)OC[C@@H](O)[C@@H](O)[C@@H]4O)[C@@H]3O)/C=C/C=C/C=C/C=C/C=C/C=C/C=C/[C@H](C)[C@H]1O)O2 (stereo partly drawn)
NOAEL at 2 week: 10 mg/kg
